Target: T1, hMSLN-His-Avi (human, UniProt Q13421 296-598, single biotin on the Avi tag in the biotinylated form)
T1 construct: Monomeric; also called human MSLN-His-Avi; hMSLN-Avi-His
T1 sequence (Q13421 other isoform, or with tags, fused parts or gaps): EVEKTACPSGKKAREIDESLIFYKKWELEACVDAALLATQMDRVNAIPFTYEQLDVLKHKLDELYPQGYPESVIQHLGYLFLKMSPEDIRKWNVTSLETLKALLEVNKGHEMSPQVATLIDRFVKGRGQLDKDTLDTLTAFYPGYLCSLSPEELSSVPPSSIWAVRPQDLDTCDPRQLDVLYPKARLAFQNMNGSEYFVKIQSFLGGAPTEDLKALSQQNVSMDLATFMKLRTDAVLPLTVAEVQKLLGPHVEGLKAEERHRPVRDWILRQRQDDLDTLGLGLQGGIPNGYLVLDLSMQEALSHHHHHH
Assay: ratio of SPR KDs
READOUT_TYPE: ratio of KD in solution/immobilised
Lab note: record the figure alone, no unit after it.

For the binder shown here, FS22-172-003-AA/FS28-256-271 (bispecific antibody, human IgG1, kappa, L234A L235A, V domains shown, IgG1 mAb^2 with LALA; also called anti-human CD137/MSLN mAb^2) VH: EVQLLESGGGLVQPGGSLRLSCAASGFTFTHTYMSWVRQAPGKGLEWVSAISPTYSTTNYADSVKGRFTISRDNNKNTLYLQMNSLRAEDTAVYYCARYNAYHAALDYWGQGTLVTVSS VL: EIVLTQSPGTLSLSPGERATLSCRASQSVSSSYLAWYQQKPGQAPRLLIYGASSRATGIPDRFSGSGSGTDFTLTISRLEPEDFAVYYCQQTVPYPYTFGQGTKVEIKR , give the reported ratio of KD in solution/immobilised. 3

For the binder shown here, FS22-172-003-AA/FS28-256-273 (bispecific antibody, human IgG1, kappa, L234A L235A, V domains shown, IgG1 mAb^2 with LALA) VH: EVQLLESGGGLVQPGGSLRLSCAASGFTFTHTYMSWVRQAPGKGLEWVSSISPTYSTTNYADSVKGRFTISRDNNKNTLYLQMNSLRAEDTAVYYCARYNAYHAALDYWGQGTLVTVSS VL: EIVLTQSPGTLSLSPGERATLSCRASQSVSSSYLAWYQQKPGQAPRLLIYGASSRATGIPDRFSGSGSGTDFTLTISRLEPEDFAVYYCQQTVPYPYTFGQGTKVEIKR , give the reported ratio of KD in solution/immobilised. 1.2

For the binder shown here, FS28-256-274 (in CD137 mAb^2 format) (bispecific antibody, V domains shown, Position 55 is IMGT numbering) VH: EVQLLESGGGLVQPGGSLRLSCAASGFTFTHTYMSWVRQAPGKGLEWVSTISPTYSTTNYADSVKGRFTISRDNNKNTLYLQMNSLRAEDTAVYYCARYNAYHAALDYWGQGTLVTVSS VL: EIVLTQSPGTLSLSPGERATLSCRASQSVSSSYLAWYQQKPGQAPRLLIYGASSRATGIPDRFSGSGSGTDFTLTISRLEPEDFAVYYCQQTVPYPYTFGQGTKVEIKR , give the reported ratio of KD in solution/immobilised. 2.8
